Cited source: patent US20190055314A1

- Experimental target: T1, CD137-hisFc fusion protein (Sino Biological Cat 10041-H03H) (human, UniProt Q07011 24-186)
- T1 construct: Bought; also called recombinant human CD137 (fused with human Fc and His tag); not shown: His tag and human Fc
- Protocol notes: BLI Octet, Fab
Property: pKd
Conceptually, pKd converts a concentration in mol/L into minus its log10.

pKd reading for Fab 5363 (Fab, V domains shown, Fab from E. coli; also called VH29/VL29) VH: EVQLVESGGGLVQPGGSLRLSCAASGYSISSGHYWTWIRQAPGKGLEWVSAISGSGSSTYYADSVKGRFTISRDNSKNTLYLQLNSLRAEDTAVYYCARGGSDAVLGDWFAYWGQGTLVTVSS VL: DIQLTQSPSSLSASVGDRVTITCRASQGVGSYLAWYQQKPGKAPKLLIYDASNLETGVPSRFSGSGSGTDFTLTISSLQPEDFATYYCQQGYQLWTFGQGTKVEIKR : 8.01

pKd reading for Fab 5314 (Fab, V domains shown, Fab from E. coli; also called VH16/VL16) VH: EVQLVESGGGLVQPGGSLRLSCAASGFSLSTGGVAVGWIRQAPGKGLEWLALIDWAGDKSYSTSLKSRLTISRDNSKNTLYLQLNSLRAEDTAVYYCARGGSDTVLGDWFAYWGQGTLVTVSS VL: DIQLTQSPSSLSASVGDRVTITCRASQGVSPYLAWYQQKPGKAPKLLIYDASNRATGIPSRFSGSGSGTDFTLTISSLQPEDFATYYCQQGYSTWTFGQGTKVEIKR : 8.08
